tested on: UACC-62 melanoma; assay: NCI-60 one-dose screen, 48 h (100 = growth as untreated, 0 = no growth, -100 = all killed); settings: 10 µM unless noted
Compounds without any hit were thinned out: in the full panel of roughly 83,000, 20% have a hit.
observed.property: growth (%)

CC(=O)O[C@H]1C(=O)[C@@]2(C)[C@H]([C@H](OC(=O)c3ccccc3)[C@]3(O)C[C@H](OC(=O)[C@H](OC(=O)OC[C@@H]4COC(C)(C)O4)[C@@H](NC(=O)c4ccccc4)c4ccccc4)C(C)=C1C3(C)C)[C@]1(OC(C)=O)CO[C@@H]1C[C@@H]2O	24.2
C[C@]12CCc3nc(Nc4ccccc4F)sc3C1=CC[C@@H]1[C@@H]2CC[C@]2(C)C(=O)CC[C@@H]12	85.8
CC12CCC(O)CC1=CCC1C2CCC2(C)C(O)CCC12 (configuration not stated)	102
O=C1CN=C(c2ccc(Cl)cc2)c2sccc2N1	91.6
Cc1cc(N(CCCl)CCCl)ccc1/C=N\NC(=O)c1ccncc1	53.1
C/C(Cc1ccc(Cl)cc1)=C(\c1ccc(OCCN2CCOCC2)cc1)c1ccc(OC(=O)Cc2ccccc2)cc1	84.5
CC(C)(C)C(=O)OCOP(=O)(NCc1ccccc1)C1CCCN(O)C1=O (configuration not stated)	19.5
O=C1OCC2=C1C(c1ccccc1)c1cc3c(cc1N2)OCO3 (configuration not stated)	31
O=P(Oc1ccc(Cl)cc1)(N1CC1)N1CC1	58
CC(C)[C@]12O[C@H]1[C@@H]1O[C@]13[C@]1(O[C@H]1C[C@H]1c4c(C(=O)c5ccccc5)oc(OC(=O)c5ccccc5)c4CC[C@@]13C)[C@@H]2O	-28.7
N#CCCNc1ccccc1	117
Clc1ccc2nnnn2n1	45.4
C#Cc1ccc2c(c1)C(c1ccccc1)=NCC(=O)N2C	31
CC(=O)O[C@H](C[C@H](C(C)C)N(C)C(=O)[C@@H](NC(=O)[C@H]1CCCCN1C)C(C)(C)C)c1nc(C(=O)N[C@@H](Cc2ccccc2)C[C@H](C)C(=O)O)cs1	26.2
COC(=O)[C@H](Cc1ccccc1)NNC(=O)c1csc([C@@H](C[C@H](C(C)C)N(C)C(=O)[C@@H](NC(=O)[C@H]2CCCCN2C)C2CC2)OC(C)=O)n1	33.7
CCCCNC(c1ccc(Cl)cc1)C(O)c1ccc(Cl)cc1 (configuration not stated)	19.2
CC(=O)O[C@H]1C(=O)[C@@]2(C)[C@H]([C@H](OC(=O)c3ccccc3)[C@]3(O)C[C@H](OC(=O)[C@H](OC(=O)OC[C@H]4COC(C)(C)O4)[C@@H](NC(=O)c4ccccc4)c4ccccc4)C(C)=C1C3(C)C)[C@]1(OC(C)=O)CO[C@@H]1C[C@@H]2O	21.7

Where do the numbers come from? From PubChem BioAssay (NCI).
